Each record here notes measured pIC50.
- EXPERIMENTAL_SYSTEM: TrkA (Homo sapiens, UniProt P04629)
- Construct: purchased BPS Bioscience, San Diego, CA, USA 79548
- Sequence (P04629 33-796): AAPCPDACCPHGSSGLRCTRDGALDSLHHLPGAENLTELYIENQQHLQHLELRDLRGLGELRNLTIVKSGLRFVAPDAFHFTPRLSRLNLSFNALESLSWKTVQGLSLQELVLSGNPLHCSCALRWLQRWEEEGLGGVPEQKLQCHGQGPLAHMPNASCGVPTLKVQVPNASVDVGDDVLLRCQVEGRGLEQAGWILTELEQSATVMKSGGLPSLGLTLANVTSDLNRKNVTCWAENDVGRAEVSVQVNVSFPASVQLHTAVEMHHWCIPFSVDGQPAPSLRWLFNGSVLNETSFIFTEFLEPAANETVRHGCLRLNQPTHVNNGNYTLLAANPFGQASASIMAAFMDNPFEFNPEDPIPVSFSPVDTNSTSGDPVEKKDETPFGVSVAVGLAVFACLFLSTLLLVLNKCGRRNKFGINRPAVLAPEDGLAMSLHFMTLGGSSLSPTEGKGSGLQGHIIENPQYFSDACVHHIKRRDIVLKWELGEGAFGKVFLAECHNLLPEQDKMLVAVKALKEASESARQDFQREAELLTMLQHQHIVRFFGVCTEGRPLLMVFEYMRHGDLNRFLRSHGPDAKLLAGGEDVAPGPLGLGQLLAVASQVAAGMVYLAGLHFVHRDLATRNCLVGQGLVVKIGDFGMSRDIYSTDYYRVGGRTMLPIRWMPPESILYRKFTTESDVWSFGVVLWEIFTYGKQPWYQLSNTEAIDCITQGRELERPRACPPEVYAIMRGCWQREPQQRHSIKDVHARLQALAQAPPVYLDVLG
- ASSAY: TRKA inhibition assay (BPS Bioscience kit, Kinase-Glo Max luminescence)
- Type: biochemical
- MEASUREMENT_SETUP: four concentrations 0.01, 0.1, 1, 10 µM, triplicate, mean ± SD, read-out: Enzyme Inhibition IC50 TRK-A
As a rule, pIC50 stands for the negative log10 of the concentration, concentration in M.

CCOC(=O)c1c(Nc2ccccc2)nn2c(-c3ccco3)c(C#N)cnc12 [11g]
6.05
CCOC(=O)c1c(Nc2ccccc2)nn2c(-c3ccc(OC)cc3)ccnc12
6.02

Input line: Provide one value: measured pIC50 of `CCOC(=O)c1c(Nc2ccccc2)nn2c(-c3ccc(Cl)cc3)ccnc12`
Output line: 5.80

Input line: Provide one value: measured pIC50 of `CCOC(=O)c1c(Nc2ccccc2)nn2c(-c3ccccc3)ccnc12`
Output line: 5.93

Provenance of the data: paper PMC11678221
